Assignment: determine reported IC50 for the given compounds.
biological target: human adenosine A2b receptor (Homo sapiens (Human), UniProt P29275); assay: Cellular in vitro reporter gene test for A2b receptor activity (CHO-K1, CRE-luciferase, NECA stimulation); type: cell-based; details: recombinant CHO-K1 cell line, CRE-luciferase reporter, antagonism of EC50 concentration of NECA; in some cases means of several determinations, rounded to two significant figures; read-out: A2b receptor IC50
Sequence (P29275 whole entry): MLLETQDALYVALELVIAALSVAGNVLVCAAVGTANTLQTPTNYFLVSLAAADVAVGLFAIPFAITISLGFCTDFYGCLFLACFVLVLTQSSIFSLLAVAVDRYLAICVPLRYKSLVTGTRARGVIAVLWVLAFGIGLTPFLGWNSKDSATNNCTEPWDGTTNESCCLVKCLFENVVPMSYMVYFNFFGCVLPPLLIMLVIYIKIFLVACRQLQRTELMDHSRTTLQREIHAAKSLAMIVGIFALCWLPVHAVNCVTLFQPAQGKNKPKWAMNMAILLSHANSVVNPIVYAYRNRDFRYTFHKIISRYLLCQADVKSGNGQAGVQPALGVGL
Numbers only, in nM.

compound=COCCn1c(=O)c2c(C)c(Cn3cc[nH]c3=O)sc2n(CCC(F)(F)F)c1=O property=IC50 quantitative_readout=8.5
compound="COC(=O)N=C1NCCN1Cc1sc2c(c1C)c(=O)n(CC(F)(F)F)c(=O)n2CC1CCO1 (single isomer, unassigned) [Example 466]" property=IC50 quantitative_readout=6.6
compound=COCCn1c(=O)n(CCc2ccccc2)c(=O)c2c(C)c(CN3CCN(C)C3=O)sc21 property=IC50 quantitative_readout=4.5
compound=CCn1c(=O)c2c(C)c(Cn3c(C)c[nH]c3=O)sc2n(CCC(F)(F)F)c1=O property=IC50 quantitative_readout=1.3
compound=COCCn1c(=O)c2c(C)c(Cn3[nH]ccc3=O)sc2n(CCOC)c1=O property=IC50 quantitative_readout=140
compound=Cc1c(CN2CCNC2=O)sc2c1c(=O)n(CC(F)F)c(=O)n2CC1COC1 property=IC50 quantitative_readout=13

Parameters: items (list). Returns: IC50 for each item.
1. CCn1c(=O)c2c(C)c(CN3CCNC3=O)sc2n(CCSC(F)(F)F)c1=O
2. COC(=O)N=C1NCCN1Cc1sc2c(c1C)c(=O)n(CC(F)(F)F)c(=O)n2CC1CCCO1 (racemic) [Example 384]

[2.6, 9.8]

====

Assignment: determine reported pIC50 for the given molecules.
molecular target: human adenosine A2b receptor (Homo sapiens (Human), UniProt P29275); assay: Cellular in vitro reporter gene test for A2b receptor activity (CHO-K1, CRE-luciferase, NECA stimulation); format: cell-based; settings: recombinant CHO-K1 cell line, CRE-luciferase reporter, antagonism of EC50 concentration of NECA; in some cases means of several determinations, rounded to two significant figures; read-out: A2b receptor IC50
Give bare numbers, as −log10 of the molar value.

Worked cases, answers included:
molecule="Cc1c(CN2CCNC2=O)sc2c1c(=O)n(CC(F)F)c(=O)n2CC1CCCO1 (racemic) [Example 219]" property=pIC50 quantitative_readout=7.72
molecule="COCCn1c(=O)n(CC(F)(F)F)c(=O)c2c(C)c(CN3CCNC3=NC(=O)OC)sc21 [Example 382]" property=pIC50 quantitative_readout=8.17
molecule="CCn1c(=O)c2c(C)c(CN3CCCN(C)C3=O)sc2n(CCC(F)(F)F)c1=O [Example 108]" property=pIC50 quantitative_readout=8.48
molecule="Cc1c(Cn2nc[nH]c2=O)sc2c1c(=O)n(C(C)C)c(=O)n2CC1CCCO1 (single isomer, unassigned) [Example 425]" property=pIC50 quantitative_readout=7.38

Parameters: items (list). Returns: pIC50 for each item.
1. CCn1c(=O)c2c(C)c(CN3CCC3=O)sc2n(CCC(F)(F)F)c1=O [Example 2]
2. Cc1c(Cn2[nH]ccc2=O)sc2c1c(=O)n(CC(F)(F)F)c(=O)n2CC1CCCO1 (single isomer, unassigned) [Example 286]
3. Cc1c(CN2CCNC2=NC#N)sc2c1c(=O)n(C(C)C)c(=O)n2CC1CCCO1 (single isomer, unassigned) [Example 357]

[7.96, 6.66, 7.49]

====

Target: human adenosine A2b receptor (Homo sapiens (Human))
Experiment: Cellular in vitro reporter gene test for A2b receptor activity (CHO-K1, CRE-luciferase, NECA stimulation)
Type: cell-based
Details: recombinant CHO-K1 cell line, CRE-luciferase reporter, antagonism of EC50 concentration of NECA; in some cases means of several determinations, rounded to two significant figures; read-out: A2b receptor IC50
Procedure: B-1. Cellular In Vitro Tests for Determining A2b Receptor Activity and Adenosine Receptor Selectivity In the case of the A2a and A2b cell lines, this is a minimal promoter having a plurality of cAMP-responsive elements (CRE). Stimulation of the Gs-coupled A2b or A2a receptors by NECA ultimately leads, via formation of cAMP, to CRE-dependent induction of luciferase expression, which is detected 3 hours after the start of the incubation with NECA using a detection solution in a suitable luminometer. […]
Property: pIC50
Answers are plain numbers, as −log10 of the molar value.

Worked cases, answers included:
molecule="CCn1c(=O)c2c(C)c(CN3CCNC3=NC(=O)OC)sc2n(CCOC)c1=O (single isomer, unassigned) [Example 118]" property=pIC50 quantitative_readout=8.51
molecule=COCCn1c(=O)c2c(C)c(CN3CCNC3=NC#N)sc2n(CCOC)c1=O property=pIC50 quantitative_readout=7.72
molecule="CCn1c(=O)c2c(C)c(CN3CCNC3=O)sc2n(CC2CCCCO2)c1=O (racemic) [Example 71]" property=pIC50 quantitative_readout=7.15
molecule="Cc1c(Cn2cc[nH]c2=O)sc2c1c(=O)n(CC(C)(C)C)c(=O)n2CC1CCCO1 (racemic)" property=pIC50 quantitative_readout=7.55
molecule=Cc1c(CN2CCNC2=S)sc2c1c(=O)n(CC(F)F)c(=O)n2C property=pIC50 quantitative_readout=7.89

Parameters: items (list). Returns: pIC50 for each item.
1. CC#CCn1c(=O)c2c(C)c(CN3CCNC3=O)sc2n(CCOC)c1=O
2. COC(C)(C)Cn1c(=O)c2c(C)c(CN3CCNC3=O)sc2n(CCC(F)(F)F)c1=O
3. CCn1c(=O)c2c(C)c(CN3CCNC(=O)C3=O)sc2n(CF)c1=O

[7.60, 8.22, 7.35]

====

molecular target: human adenosine A2b receptor (Homo sapiens (Human), UniProt P29275); assay: Cellular in vitro reporter gene test for A2b receptor activity (CHO-K1, CRE-luciferase, NECA stimulation); format: cell-based; conditions: recombinant CHO-K1 cell line, CRE-luciferase reporter, antagonism of EC50 concentration of NECA; in some cases means of several determinations, rounded to two significant figures; read-out: A2b receptor IC50
Assignment: determine reported pIC50 for the given molecules.
One number for each entry, as −log10 of the molar value.

Parameters: items (list). Returns: pIC50 for each item.
1. CCn1c(=O)c2c(C)c(CN3CCNC3=O)sc2n(CC2CCO2)c1=O (racemic) [Example 65]
2. COCCn1c(=O)c2c(C)c(CN3CCNC3=NC(=O)OC)sc2n(CC2CCCO2)c1=O (single isomer, unassigned) [Example 391]
3. CCn1c(=O)c2c(C)c(Cn3nc[nH]c3=O)sc2n(CC2CCCO2)c1=O (single isomer, unassigned) [Example 420]
4. COC(C)Cn1c(=O)c2c(C)c(CN3CCNC3=O)sc2n(CCC(F)(F)F)c1=O (racemic) [Example 412]
5. CCOCCn1c(=O)n(CC(C)C)c(=O)c2c(C)c(CN3CCNC3=S)sc21
6. COC(C)Cn1c(=O)c2c(C)c(Cn3nc[nH]c3=O)sc2n(CCC(F)(F)F)c1=O (single isomer, unassigned) [Example 442]

1: 7.92; 2: 7.47; 3: 7.30; 4: 8.27; 5: 7.85; 6: 7.22

Report measured pIC50; entry is Cc1c(CN2CCNC2=O)sc2c1c(=O)n(C(C)C)c(=O)n2CC1CCO1 (single isomer, unassigned) [Example 184] 8.15

====

target: UniProt:P29275; assay: Cellular in vitro reporter gene test for A2b receptor activity (CHO-K1, CRE-luciferase, NECA stimulation); type: cell-based
Property: IC50 (nM)
Answers are plain numbers, in nM.

compound="Cc1c(CN2CCNC2=NC#N)sc2c1c(=O)n(C(C)C(F)(F)F)c(=O)n2CCC(F)(F)F (racemic)" quantitative_readout=10

# input for lookup
Report measured IC50; entry is COCCn1c(=O)n(C(C)C(F)(F)F)c(=O)c2c(C)c(Cn3nc[nH]c3=O)sc21 (racemic) 150

====

target: human adenosine A2b receptor (Homo sapiens (Human), UniProt P29275); assay: Cellular in vitro reporter gene test for A2b receptor activity (CHO-K1, CRE-luciferase, NECA stimulation); format: cell-based; conditions: recombinant CHO-K1 cell line, CRE-luciferase reporter, antagonism of EC50 concentration of NECA; in some cases means of several determinations, rounded to two significant figures; read-out: A2b receptor IC50
pIC50: −log10 of the molar value.
Give satisfied when the value for pIC50 is at least 8. Give not satisfied when it is less.

These solved cases illustrate the format of a correct answer.
compound=COCCn1c(=O)n(CCc2ccccc2)c(=O)c2c(C)c(CN3CCCS3(=O)=O)sc21 class_assignment=satisfied
compound="Cc1c(Cn2nc[nH]c2=O)sc2c1c(=O)n(C(C)C(F)(F)F)c(=O)n2CCC(F)(F)F (racemic)" class_assignment="not satisfied"
compound="CCn1c(=O)c2c(C)c(Cn3[nH]ccc3=O)sc2n(CC2CCCO2)c1=O (single isomer, unassigned) [Example 131]" class_assignment="not satisfied"

Could you tell me if the measured pIC50 of Cc1c(CN2CCNC(=O)C2=O)sc2c1c(=O)n(CC(F)F)c(=O)n2C reaches 8 or more? not satisfied
